Can you tell me pIC50 for the items I'm about to list?
target system: Recombinant full length human OGA enzyme (Homo sapiens, UniProt O60502)
Construct: Recombinant full length human OGA enzyme was purchased from Origene
Sequence (O60502 1-916): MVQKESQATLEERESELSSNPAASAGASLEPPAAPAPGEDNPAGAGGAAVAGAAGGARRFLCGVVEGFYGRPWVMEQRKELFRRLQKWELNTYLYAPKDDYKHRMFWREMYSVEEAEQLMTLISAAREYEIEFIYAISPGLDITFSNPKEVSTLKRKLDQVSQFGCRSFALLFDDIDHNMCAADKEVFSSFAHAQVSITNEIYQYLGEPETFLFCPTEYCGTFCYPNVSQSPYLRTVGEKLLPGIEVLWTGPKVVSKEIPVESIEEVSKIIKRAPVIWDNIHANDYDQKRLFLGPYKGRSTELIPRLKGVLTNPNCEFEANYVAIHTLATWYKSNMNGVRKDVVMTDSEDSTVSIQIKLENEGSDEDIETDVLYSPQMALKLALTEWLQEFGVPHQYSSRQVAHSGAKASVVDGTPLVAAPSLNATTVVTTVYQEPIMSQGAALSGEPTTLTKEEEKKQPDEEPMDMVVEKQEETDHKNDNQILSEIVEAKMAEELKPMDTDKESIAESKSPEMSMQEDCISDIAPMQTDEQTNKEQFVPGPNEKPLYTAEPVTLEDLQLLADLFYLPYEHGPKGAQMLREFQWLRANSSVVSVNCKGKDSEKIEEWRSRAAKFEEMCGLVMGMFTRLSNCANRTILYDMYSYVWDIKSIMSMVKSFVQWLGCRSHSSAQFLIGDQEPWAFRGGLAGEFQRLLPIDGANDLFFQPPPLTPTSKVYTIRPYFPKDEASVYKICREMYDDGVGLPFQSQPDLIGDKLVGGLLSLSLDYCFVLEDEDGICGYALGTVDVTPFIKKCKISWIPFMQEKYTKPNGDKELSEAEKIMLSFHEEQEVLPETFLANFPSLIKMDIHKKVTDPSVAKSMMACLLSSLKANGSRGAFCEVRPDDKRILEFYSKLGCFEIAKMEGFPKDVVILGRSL
protocol details: OGA Enzyme Inhibition Biochemical Assay
setup conditions: 1 nM OGA, 100 μM 4-MUGlcNAc (Km), pH 6.4, 90 minutes at room temperature; 10-point dose-response starting from 20 μM
Structures can show the parent of a compound that is named as a salt.
Here pIC50 is given on a logarithmic scale as minus log10 of the concentration in mol/L.

## Input Quickly give me recorded pIC50 for COc1cc(CC2CN(Cc3cnc(NC(C)=O)s3)CCCO2)ccn1 (single isomer, unassigned) [Example 1-41 Peak 2]
## Output 6.57

## Input Quickly give me recorded pIC50 for CC(=O)Nc1ncc(CN2CCOCC(Cc3ncc(F)cn3)C2)s1 (single isomer, unassigned) [Example 1-45 Peak 1]
## Output 5.80

## Input Quickly give me recorded pIC50 for COc1cc(CC2CN(Cc3cnc(NC(C)=O)s3)CCCO2)ccn1 (single isomer, unassigned) [Example 1-41 Peak 1]
## Output 7.41

## Input Quickly give me recorded pIC50 for CC(=O)Nc1ncc(CN2CCOCC(Cc3cc(C)nc(C)c3)C2)s1 (single isomer, unassigned) [Example 1-43 Peak 1]
## Output 7.72

## Input Quickly give me recorded pIC50 for CC(=O)Nc1ncc(CN2CCN[C@H](Cc3cc(C)nc(C)c3)C2)s1 [Example 4-1, hydrochloride]
## Output 5.15

## Input Quickly give me recorded pIC50 for CC(=O)Nc1ncc(CN2C[C@@H](Cc3ccnc(C)c3)OC[C@@H]2C)s1 [Example 1-32]
## Output 8.85

## Input Quickly give me recorded pIC50 for CC(=O)Nc1ncc(CN2CCNC(Cc3ncc(F)cn3)C2)s1 (single isomer, unassigned) [Example 2-20 Peak 1]
## Output 6.25

## Input Quickly give me recorded pIC50 for CC(=O)Nc1ncc(CN2CCCOC(Cc3cc(C)nc(C)c3)C2)s1 (racemic) [Example 1-36]
## Output 7.24

## Input Quickly give me recorded pIC50 for COc1cc(C[C@@H]2CN(Cc3cnc(NC(C)=O)s3)[C@@H](C)CN2)ccn1 [Example 2-14]
## Output 8.12

## Input Quickly give me recorded pIC50 for CCN1C[C@H](C)N(Cc2cnc(NC(C)=O)s2)C[C@H]1Cc1ccc(C)nc1 [Example 2-12]
## Output 6.74

## Input Quickly give me recorded pIC50 for CC(=O)Nc1ncc(CN2C[C@@H](Cc3ncc(F)cn3)O[C@@H](C)C2)s1 (racemic) [Example 1-34]
## Output 6.17

## Input Quickly give me recorded pIC50 for CC(=O)Nc1ncc(CN2CCN(C)[C@H](Cc3cc(C)nc(C)c3)C2)s1 [Example 4-3]
## Output 5.80

## Input Quickly give me recorded pIC50 for CC(=O)Nc1nc(F)c(CN2C[C@@H](Cc3ccc(C)nc3)OC[C@@H]2C)s1 [Example 1-49]
## Output 6.77

## Input Quickly give me recorded pIC50 for CC(=O)Nc1ncc(CN2C[C@H](Cc3ncc(F)cn3)OC[C@H]2C)s1 [Example 1-29]
## Output 4.92

## Input Quickly give me recorded pIC50 for CC(=O)Nc1ncc(CN2C[C@@H](Cc3cc(C)nc(C)c3)N(C(C)=O)C[C@@H]2C)s1 [Example 2-15]
## Output 5.23

## Input Quickly give me recorded pIC50 for CC(=O)Nc1ncc(CN2CCO[C@H](Cc3ccc(C)cn3)C2)s1 [Example 1-16]
## Output 6.80

## Input Quickly give me recorded pIC50 for CC(=O)Nc1ncc(CN2CCO[C@H](Cc3ccnc(OC(C)C)c3)C2)s1 [Example 1-12]
## Output 6.57

## Input Quickly give me recorded pIC50 for CC(=O)Nc1ncc(CN2CCN(C)[C@@H](Cc3ccc(C)nc3)C2)s1 [Example 4-16]
## Output 5.70

## Input Quickly give me recorded pIC50 for CC(=O)Nc1ncc(CN2C[C@@H](Cc3cc(C)nc(C)n3)NC[C@@H]2C)s1 [Example 2-13]
## Output 7.66

## Input Quickly give me recorded pIC50 for CC(=O)Nc1ncc(CN2CCN(C)[C@@H](Cc3cc(C)nc(C)c3)C2)s1 [Example 4-4]
## Output 6.70

## Input Quickly give me recorded pIC50 for CC(=O)Nc1ncc(CN2CCN(C)[C@@H](Cc3ccnc(C)c3)C2)s1 [Example 4-10]
## Output 6.18

## Input Quickly give me recorded pIC50 for CC(=O)Nc1ncc(CN2CCNC(Cc3ccnc(C)c3)C2)s1 (single isomer, unassigned) [Example 4-8 Peak 1]
## Output 5.17

## Input Quickly give me recorded pIC50 for CC(=O)Nc1ncc(CN2C[C@@H](Cc3ncc(F)cn3)NC[C@@H]2C)s1 [Example 2-5]
## Output 7.72

## Input Quickly give me recorded pIC50 for CC(=O)Nc1ncc(C(C)N2CCO[C@H](Cc3ncc(F)cn3)C2)s1 (single isomer, unassigned) [Example 1-23 Peak 2]
## Output 6.44

## Input Quickly give me recorded pIC50 for COc1nccc(CC2CN(Cc3cnc(NC(C)=O)s3)CCN2)c1F (single isomer, unassigned) [Example 4-18 Peak 1]
## Output 4.85

## Input Quickly give me recorded pIC50 for CC(=O)Nc1ncc(CN2CCO[C@H](Cc3cc(C)c(F)cn3)C2)s1 [Example 1-18]
## Output 6.70

## Input Quickly give me recorded pIC50 for CC(=O)Nc1ncc(CN2CCCNC(Cc3ccnc(C)c3)C2)s1 (centres unmarked) [Example 2-27]
## Output 5.00

## Input Quickly give me recorded pIC50 for CC(=O)Nc1ncc(CN2C[C@@H](Cc3ncc(F)cn3)OC[C@@H]2C)s1 [Example 1-26]
## Output 8.29

## Input Quickly give me recorded pIC50 for CC(=O)Nc1ncc(CN2C[C@@H](Cc3cc(C)nc(C)c3)N(C)C[C@@H]2C)s1 [Example 2-10]
## Output 7.47

The measured values listed here are drawn from patent US12319679B2.
